Entry source: patent US9833454B2

test target: CYP2C8 (Homo sapiens)
run description: Inhibition of CYP enzymes in human liver microsomes (HLM), CYP2C8
Type: in vitro ADME
condition: IC50-30 min 2C8, HLM; 30 min preincubation with NADPH
measure name: pIC50
Give bare numbers, as −log10 of the molar value.

The compound listed as CNc1nc(Nc2ccc(-n3cnc(C)n3)c(OC(F)F)c2)nc2c1C(C)(C)CC2c1ccc(F)cc1 (single isomer, unassigned) [Enantiomer 1] has a reported pIC50 of 5.66

###

test target: CYP2C8 (Homo sapiens, UniProt P10632)
Sequence (P10632 1-490): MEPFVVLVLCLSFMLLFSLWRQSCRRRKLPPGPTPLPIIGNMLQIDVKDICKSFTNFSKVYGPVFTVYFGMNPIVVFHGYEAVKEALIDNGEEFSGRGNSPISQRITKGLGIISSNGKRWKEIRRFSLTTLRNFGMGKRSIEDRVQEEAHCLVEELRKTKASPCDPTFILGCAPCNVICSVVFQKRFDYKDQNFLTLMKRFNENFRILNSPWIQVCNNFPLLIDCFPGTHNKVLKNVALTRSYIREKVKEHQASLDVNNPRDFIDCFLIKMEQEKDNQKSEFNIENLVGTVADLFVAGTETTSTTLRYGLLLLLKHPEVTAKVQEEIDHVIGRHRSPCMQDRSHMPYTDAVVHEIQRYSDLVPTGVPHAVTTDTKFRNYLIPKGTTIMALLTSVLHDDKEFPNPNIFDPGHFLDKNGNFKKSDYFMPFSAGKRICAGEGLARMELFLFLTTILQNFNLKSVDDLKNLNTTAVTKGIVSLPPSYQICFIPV
run description: Inhibition of recombinant CYP enzymes (rCYP), CYP2C8
Format: in vitro ADME
condition: average of two experiments, read-out: rCYP IC50 2C8
measure name: pIC50
One number for each entry, as −log10 of the molar value.

The compound listed as CNc1nc(Nc2ccc(-n3cnc(C)n3)c(OC(F)F)c2)nc2c1C(C)(C)CC2c1ccc(F)cc1 (single isomer, unassigned) [Enantiomer 1] has a reported pIC50 of 6.02
